tested on: TEC; details: concentration: 1 μM, replicates: in singlicate; n = 1;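 note: KINOMEscan kinase panel screen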
Endpoint: %Inh (%)
State just the number; it will be interpreted in %.

* COc1cc(Nc2nccc(N3CCC(NC(=O)Nc4cccc(C(C)=O)c4)C3)n2)cc(OC)c1OC (centres unmarked) | 0
* CN(C)Cc1ccc(-c2ccc3c(Nc4ccc(Oc5ccccn5)cc4)ccnc3c2)o1 | 49

// next entry
Prompt: What value of %Inh has been reported for the following compound? `Cc1cccc(NC(=O)Nc2ccc(Oc3ncnc4ccn(C)c34)cc2)c1`
Response: 0

----------
# key: entry, value: %Inh
tested on: PIK4CB; construct: gene PI4KB; settings: concentration: 1 μM, replicates: in singlicate; n = 1
State just the number; it will be interpreted in %.

• O=C(Nc1cccc(-c2nn3ncccc3c2-c2ccnc(Nc3ccccc3)n2)c1)c1c(F)cccc1F [GSK198271] = 6
• CNC(=O)c1ccccc1Nc1nc(Nc2ccc(N3CCOCC3)cc2)ncc1Cl.Cl [GSK1576028] = 56
• Oc1cc(Nc2ccnc3cc(I)ccc23)ccc1F [GW552771] = 20
• Cc1ccc(S(=O)(=O)Nc2ccc(Nc3nccc(Nc4cccc5[nH]ncc45)n3)cc2)cc1 [GSK581271] = 77
• COc1ccc(Nc2nccc(N3CCC(NC(=O)Nc4cccc(OC)c4)C3)n2)cc1 (stereo not shown) [GSK1379742] = 1

Prompt: What value of %Inh has been reported for the following molecule? Cl.c1ccc(-c2ccc3c(Nc4ccc5[nH]ncc5c4)ccnc3c2)nc1 [GW440137]
Response: 0

Prompt: What value of %Inh has been reported for the following molecule? Clc1ccc(-c2nn3ncccc3c2-c2ccnc(Nc3ccc4c(c3)OCCO4)n2)cc1 [GW829116]
Response: 0

----------
tested on: MET; conditions: concentration: 1 μM, replicates: in singlicate; n = 1
Endpoint: %Inh
Please make sure the unit comes right after the number.

Below are worked cases with known answers.
• O=C(Nc1n[nH]c2cc(-c3ccoc3)ccc12)C1CC1 [SB-738481] = 0%
• Cc1ccc(C(=O)N2CC[C@@H](O)C2)cc1-n1c(C)cc(OCc2ccc(F)cc2F)c(Br)c1=O = 0%
• C[C@@H](Oc1cc(-n2cnc3cc(-c4ccnc(NCCS(C)(=O)=O)c4)ccc32)sc1C(N)=O)c1ccccc1Cl [GSK907232] = 36%
• FC(F)(F)c1ccc(/C=C/c2cncnc2Nc2ccc3[nH]c(Cc4ccccc4)nc3c2)cc1 [GW709199] = 16%
• Nc1ncc(-c2ccc3nccc(-c4ccncc4)c3c2)cc1S(=O)(=O)N1CCOCC1 [GSK1627798] = 0%
• Cl.c1ccc(-c2ccc3c(Nc4ccc5[nH]ccc5c4)ccnc3c2)nc1 [GW440138] = 0%
• CC(=O)N1CCN(c2ccc(Nc3nccc(-c4sc(C(C)C)nc4-c4cccc(NS(=O)(=O)c5cccc(Cl)c5)c4)n3)cn2)CC1 [GSK1660437] = 0%
• Cl.NC(=O)c1cccc(Nc2nccc(Nc3ccc(Oc4c(Cl)cccc4Cl)c(Cl)c3)n2)c1 [GW659009] = 0%

// next entry
Prompt: What value of %Inh has been reported for the following compound? `COCCOCCOc1cc2ncc3c4ccc(C#N)cc4[nH]c3c2cc1OC`
Response: 10%

----------
# key: entry, value: %Inh
tested on: ADCK4; conditions: concentration: 1 μM, replicates: in singlicate; n = 1
State just the number; it will be interpreted in %.

* c1ccc(-c2cnc3nccnn23)cc1 | 17
* C[C@@H]1CC[C@@H](C(=O)Nc2ccccc2)CN1c1cc(-c2ccc3c(N)n[nH]c3c2)nc(N)n1 | 14

Prompt: What value of %Inh has been reported for the following compound? COc1cc(Nc2nccc(N3CCC(NC(=O)c4cc5ccccc5s4)C3)n2)cc(OC)c1OC (stereo not shown)
Response: 26

Prompt: What value of %Inh has been reported for the following compound? `CC(=O)Nc1nc2cnc(Nc3cc(NC(=O)c4cccc(C5(C#N)CC5)c4Cl)ccc3C)nc2s1`
Response: 0

Reference source for all entries: paper PMC5540273
